Reported values of pIC50 for individual entries
# Tested on: A-375
# RUN DESCRIPTION: Cytotoxicity in human A375 cells assessed as reduction in cell viability incubated for 72 hrs by MTS assay
# Type: functional, cell-based
# CONDITIONS: A-375, 72 h
pIC50: −log10 of the molar value.
READOUT KIND: pIC50

>>> print(df.to_string())
                         compound_structure  assay_result
0  COc1cc(C(=O)c2c[nH]c(-c3c[nH]c4ccccc34)n2)cc2c1OC=CO2          8.96
1  COc1cc(C(=O)c2c[nH]c(-c3c[nH]c4ccccc34)n2)cc2c1OCCCO2          7.49
2  COc1cc(C(=O)c2c[nH]c(-c3cccc4[nH]ccc34)n2)cc2c1OC=CO2          7.77
